Taken from PubChem BioAssay AID2060619.

system: 323965-272-R-J2-PDC complex spheroid viability; assay: Anticancer human tumor 323965-272-R-J2-PDC patient-derived pancreatic carcinoma cell line growth inhibition [CLK]; conditions: second compound 10 µM; first compound 0.01 µM; active = viability on the fitted dose curve at most 10% of control; inactive = the rest
Outcome field: choose from yes for active, no for inactive

In: For CCc1c2c(nc3ccc(O)cc13)-c1cc3c(c(=O)n1C2)COC(=O)[C@]3(O)CC + CN1CCN(c2cc(C(=O)Nc3cc4cc(-c5cnn(C)c5)ccc4cn3)ccn2)CC1 , what call appears in the results of this test?
Out: yes

###

viability, T/C reference
system: 323965-272-R-J2-PDC complex spheroid viability; test: Anticancer human tumor 323965-272-R-J2-PDC cell line growth inhibition [CLK]; conditions: second compound 0.0316 µM; first compound 0.316 µM; hits give low values;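 also: spheroids exposed to agents for seven days before readout; percent of DMSO vehicle control wells so 100% = untreated growth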
Output spec: scalar in %, unitless text.

Study these solved cases before continuing.
CC(Nc1ccc2c(c1)OCCn1cc(N3C(=O)OCC3C(F)F)nc1-2)C(N)=O (stereo not given) + CN1CCN(c2cc(C(=O)Nc3cc4cc(-c5cnn(C)c5)ccc4cn3)ccn2)CC1; 79
COC1C=CCC(C)C(C)S(=O)(=O)NC(=O)c2ccc3c(c2)N(CC2CCC21)CC1(CCCc2cc(Cl)ccc21)CO3 (stereo not given) + CNC(=O)c1ccc(Nc2nc(OC3CCCC3)c3c(-c4ccc5nc(C)oc5c4)c[nH]c3n2)c(OC)c1; 85.4
CC1(C)CCC(CN2CCN(c3ccc(C(=O)NS(=O)(=O)c4ccc(NCC5CCOCC5)c([N+](=O)[O-])c4)c(Oc4cnc5[nH]ccc5c4)c3)CC2)=C(c2ccc(Cl)cc2)C1 + CN1CCN(c2cc(C(=O)Nc3cc4cc(-c5cnn(C)c5)ccc4cn3)ccn2)CC1; 93.8
CC(=O)O[C@H]1C(=O)[C@@]2(C)[C@H]([C@H](OC(=O)c3ccccc3)[C@]3(O)C[C@H](OC(=O)[C@H](O)[C@@H](NC(=O)c4ccccc4)c4ccccc4)C(C)=C1C3(C)C)[C@]1(OC(C)=O)CO[C@@H]1C[C@@H]2O + CNC(=O)c1ccc(Nc2nc(OC3CCCC3)c3c(-c4ccc5nc(C)oc5c4)c[nH]c3n2)c(OC)c1; 34.4
CCc1c2c(nc3ccc(O)cc13)-c1cc3c(c(=O)n1C2)COC(=O)[C@]3(O)CC + CNC(=O)c1ccc(Nc2nc(OC3CCCC3)c3c(-c4ccc5nc(C)oc5c4)c[nH]c3n2)c(OC)c1; 24.4
Nc1ccccc1NC(=O)c1ccc(CNC(=O)OCc2cccnc2)cc1 + CNC(=O)c1ccc(Nc2nc(OC3CCCC3)c3c(-c4ccc5nc(C)oc5c4)c[nH]c3n2)c(OC)c1; 118
CCc1c2c(nc3ccc(O)cc13)-c1cc3c(c(=O)n1C2)COC(=O)[C@]3(O)CC + CN1CCN(c2cc(C(=O)Nc3cc4cc(-c5cnn(C)c5)ccc4cn3)ccn2)CC1; 25.7
C=CC(=O)N1CCN(c2nc(=O)n(-c3c(C)ccnc3C(C)C)c3nc(-c4c(O)cccc4F)c(F)cc23)C(C)C1 (stereo not given) + CNC(=O)c1ccc(Nc2nc(OC3CCCC3)c3c(-c4ccc5nc(C)oc5c4)c[nH]c3n2)c(OC)c1; 66.9

In: // lookup viability, T/C for C=C(F)C(=O)N1CCN(c2nc(OCC3CCCN3C)nc3c2CCN(c2cccc4cccc(Cl)c24)C3)CC1CC#N (stereo not given) + CN1CCN(c2cc(C(=O)Nc3cc4cc(-c5cnn(C)c5)ccc4cn3)ccn2)CC1
Out: 48.5

In: // lookup viability, T/C for CCCS(=O)(=O)Nc1ccc(F)c(C(=O)c2c[nH]c3ncc(-c4ccc(Cl)cc4)cc23)c1F + CNC(=O)c1ccc(Nc2nc(OC3CCCC3)c3c(-c4ccc5nc(C)oc5c4)c[nH]c3n2)c(OC)c1
Out: 116

In: // lookup viability, T/C for COc1ccc([C@@H](O)c2cc(-c3ncnc4cc(N5CCOCC5)ccc34)c(F)cc2Cl)nn1 + CNC(=O)c1ccc(Nc2nc(OC3CCCC3)c3c(-c4ccc5nc(C)oc5c4)c[nH]c3n2)c(OC)c1
Out: 110

In: // lookup viability, T/C for O=c1[nH]cc(F)c(=O)[nH]1 + CN1CCN(c2cc(C(=O)Nc3cc4cc(-c5cnn(C)c5)ccc4cn3)ccn2)CC1
Out: 99.3

In: // lookup viability, T/C for CC1COCCN1c1cc(C2(S(C)(=N)=O)CC2)nc(-c2ccnc3[nH]ccc23)n1 (stereo not given) + CNC(=O)c1ccc(Nc2nc(OC3CCCC3)c3c(-c4ccc5nc(C)oc5c4)c[nH]c3n2)c(OC)c1
Out: 90.7

In: // lookup viability, T/C for C=CC(=O)N1CCN(c2nc(=O)n(-c3c(C)ccnc3C(C)C)c3nc(-c4c(O)cccc4F)c(F)cc23)C(C)C1 (stereo not given) + CN1CCN(c2cc(C(=O)Nc3cc4cc(-c5cnn(C)c5)ccc4cn3)ccn2)CC1
Out: 55

In: // lookup viability, T/C for CCCS(=O)(=O)Nc1ccc(F)c(C(=O)c2c[nH]c3ncc(-c4ccc(Cl)cc4)cc23)c1F + CN1CCN(c2cc(C(=O)Nc3cc4cc(-c5cnn(C)c5)ccc4cn3)ccn2)CC1
Out: 102

In: // lookup viability, T/C for CCN1CCN(Cc2ccc(Nc3ncc(F)c(-c4cc(F)c5nc(C)n(C(C)C)c5c4)n3)nc2)CC1 + CNC(=O)c1ccc(Nc2nc(OC3CCCC3)c3c(-c4ccc5nc(C)oc5c4)c[nH]c3n2)c(OC)c1
Out: 66.2

In: // lookup viability, T/C for COC1C=CCC(C)C(C)S(=O)(=O)NC(=O)c2ccc3c(c2)N(CC2CCC21)CC1(CCCc2cc(Cl)ccc21)CO3 (stereo not given) + CN1CCN(c2cc(C(=O)Nc3cc4cc(-c5cnn(C)c5)ccc4cn3)ccn2)CC1
Out: 62

In: // lookup viability, T/C for COc1ccc([C@@H](O)c2cc(-c3ncnc4cc(N5CCOCC5)ccc34)c(F)cc2Cl)nn1 + CN1CCN(c2cc(C(=O)Nc3cc4cc(-c5cnn(C)c5)ccc4cn3)ccn2)CC1
Out: 84

In: // lookup viability, T/C for CC(CO)NC(=O)c1cc(-c2ccc(Cl)cc2)nn(-c2cnn(C)c2)c1=O (stereo not given) + CNC(=O)c1ccc(Nc2nc(OC3CCCC3)c3c(-c4ccc5nc(C)oc5c4)c[nH]c3n2)c(OC)c1
Out: 100

In: // lookup viability, T/C for O=C(c1cc(Cc2n[nH]c(=O)c3ccccc23)ccc1F)N1CCN(C(=O)C2CC2)CC1 + CN1CCN(c2cc(C(=O)Nc3cc4cc(-c5cnn(C)c5)ccc4cn3)ccn2)CC1
Out: 87.4
